B1: TPR 5TU (parent)
chain: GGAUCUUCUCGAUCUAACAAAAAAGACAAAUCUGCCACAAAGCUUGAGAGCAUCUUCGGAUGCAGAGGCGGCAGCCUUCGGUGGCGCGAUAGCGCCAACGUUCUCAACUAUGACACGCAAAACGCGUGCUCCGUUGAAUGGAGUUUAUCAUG

- Variants of: B1
- TEST_NAME: polymerase ribozyme fitness, log enrichment relative to wild type (log ratio); higher = more active; in vitro selection for triplet polymerase activity
This sample holds only a part of the variants without activity.
Measured polymerase ribozyme fitness (log ratio), listed per entry for reference.

U13C A19G U45G C93A A106U    -2.34

State the recorded polymerase ribozyme fitness (log ratio) for this entry: A22C C54U G84U U104G C114G G133U ≤ -4.2

Entry C54U C87U G92C : reported polymerase ribozyme fitness (log ratio) = ? -0.365

I would be grateful if you could share the reported polymerase ribozyme fitness (log ratio) for A16G C27G U44A C79G . ≤ -4.2

GET /values?readout=polymerase ribozyme fitness (log ratio)&item= A49C A52U A138U ≤ -4.2

# lookup: polymerase ribozyme fitness (log ratio) of C14U G83U G88C A147G ≤ -4.2

Which polymerase ribozyme fitness (log ratio) value is on record for A12G C75U C93U U144C ? -0.389

So what does the record say about polymerase ribozyme fitness (log ratio) for A39U C69U C95U C129G ? ≤ -4.2

Requested field: polymerase ribozyme fitness (log ratio). Item: A21C A26C A28C G70U A107C A147C ≤ -4.2
